# ASSAY COMMENT: Cytotoxicity against human MOLT4 cells by MTT assay
# Format: cell-based, MOLT-4
EXPERIMENTAL ENDPOINT: CC50 (µM)
Give bare numbers, in µM.

// query Item under review: Nc1cc2c(=O)c(C(=O)O)cn(C3CC3)c2cc1N1CCN(c2ccccn2)CC1 . Reported CC50?
// result 24

* * *

# Test system: Human betaherpesvirus 5
# ASSAY COMMENT: Antiviral activity against GCV-resistant Human cytomegalovirus 759rD100 harboring 4-aa deletion (638-641) in UL97 kinase and DNA polymerase A987G mutant infected in human foreskin fibroblast by plaque reduction assay
# Assay type: functional, organism-based
# SETTINGS: Human betaherpesvirus 5, 759rD100
EXPERIMENTAL ENDPOINT: EC50 (nM)
Numbers only, in nM.

// query Item under review: Nc1cc2c(=O)c(C(=O)O)cn(C3CC3)c2cc1N1CCN(c2ccccn2)CC1 . Reported EC50?
// result 900
